target: Matrix metalloproteinase-9 (Homo sapiens, UniProt P14780)
Sequence (P14780 whole entry): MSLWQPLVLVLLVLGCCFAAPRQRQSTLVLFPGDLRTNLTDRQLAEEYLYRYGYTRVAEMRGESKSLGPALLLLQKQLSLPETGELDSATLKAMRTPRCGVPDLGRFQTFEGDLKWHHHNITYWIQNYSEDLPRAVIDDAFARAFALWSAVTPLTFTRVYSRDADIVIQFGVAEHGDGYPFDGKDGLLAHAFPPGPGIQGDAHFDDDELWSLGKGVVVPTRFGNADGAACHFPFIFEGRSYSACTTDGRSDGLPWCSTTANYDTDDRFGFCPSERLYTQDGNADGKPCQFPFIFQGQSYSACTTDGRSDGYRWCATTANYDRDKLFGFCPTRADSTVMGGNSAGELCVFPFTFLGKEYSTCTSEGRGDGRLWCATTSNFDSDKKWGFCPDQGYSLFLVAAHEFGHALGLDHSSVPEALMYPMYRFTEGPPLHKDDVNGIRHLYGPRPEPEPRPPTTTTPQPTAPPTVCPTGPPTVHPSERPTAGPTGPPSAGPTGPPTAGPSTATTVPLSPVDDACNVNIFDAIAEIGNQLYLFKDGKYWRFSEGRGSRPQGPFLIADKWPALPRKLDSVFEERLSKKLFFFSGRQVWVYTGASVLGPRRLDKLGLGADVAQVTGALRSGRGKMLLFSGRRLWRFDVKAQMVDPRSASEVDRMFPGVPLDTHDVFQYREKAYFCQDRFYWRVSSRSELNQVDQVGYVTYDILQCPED
assayReadout: IC50 (nM)
# unit: nM | format: bare number

Look up IC50: `Cc1cc(C2CCN(S(=O)(=O)C(C)(C)C(=O)NO)CC2)ccc1-c1cccc(OCCO)c1`
406
